// data source = patent US20060069132A1

# System: morningglory
# Test Description: Test A pre-/postemergence herbicide test
# Format: in vivo, Ipomoea spp.
# Test Context: preemergence, 500 g ai/ha; visual injury, 0 to 100 scale (0 no effect, 100 complete control)
Property Label: Morningglory plant response rating
Just the number, please.

Query: Using the record for CCc1nn(C(C)(C)C)nc1C(=O)Nc1cccc(C(=O)NC2CC2)c1 [Compound 417] , report its Morningglory plant response rating.
Reply: 20

Query: Same question, C#CCNC(=O)c1cccc(NC(=O)c2sc(C(C)(C)C)nc2CC)n1 [Compound 217] this time
Reply: 0

Query: Same question, CCNC(=O)c1ccnc(NC(=O)c2cn(C(C)(C)C)nc2CC)c1 [Compound 452] this time
Reply: 10

Query: Same question, CCn1nc(C(C)(C)C)cc1C(=O)Nc1cncc(C(=O)NCC(F)(F)F)n1 [Compound 291] this time
Reply: 0

Query: Same question, COC(=O)c1cccc(NC(=O)c2cc(C(C)(C)C)nn2C)n1 [Compound 312] this time
Reply: 0
